The reported measurements were obtained from patent US20200291018A1.

Each item that follows carries a reported pIC50.
target: AXL (Homo sapiens)
Sequence (P30530 26-894): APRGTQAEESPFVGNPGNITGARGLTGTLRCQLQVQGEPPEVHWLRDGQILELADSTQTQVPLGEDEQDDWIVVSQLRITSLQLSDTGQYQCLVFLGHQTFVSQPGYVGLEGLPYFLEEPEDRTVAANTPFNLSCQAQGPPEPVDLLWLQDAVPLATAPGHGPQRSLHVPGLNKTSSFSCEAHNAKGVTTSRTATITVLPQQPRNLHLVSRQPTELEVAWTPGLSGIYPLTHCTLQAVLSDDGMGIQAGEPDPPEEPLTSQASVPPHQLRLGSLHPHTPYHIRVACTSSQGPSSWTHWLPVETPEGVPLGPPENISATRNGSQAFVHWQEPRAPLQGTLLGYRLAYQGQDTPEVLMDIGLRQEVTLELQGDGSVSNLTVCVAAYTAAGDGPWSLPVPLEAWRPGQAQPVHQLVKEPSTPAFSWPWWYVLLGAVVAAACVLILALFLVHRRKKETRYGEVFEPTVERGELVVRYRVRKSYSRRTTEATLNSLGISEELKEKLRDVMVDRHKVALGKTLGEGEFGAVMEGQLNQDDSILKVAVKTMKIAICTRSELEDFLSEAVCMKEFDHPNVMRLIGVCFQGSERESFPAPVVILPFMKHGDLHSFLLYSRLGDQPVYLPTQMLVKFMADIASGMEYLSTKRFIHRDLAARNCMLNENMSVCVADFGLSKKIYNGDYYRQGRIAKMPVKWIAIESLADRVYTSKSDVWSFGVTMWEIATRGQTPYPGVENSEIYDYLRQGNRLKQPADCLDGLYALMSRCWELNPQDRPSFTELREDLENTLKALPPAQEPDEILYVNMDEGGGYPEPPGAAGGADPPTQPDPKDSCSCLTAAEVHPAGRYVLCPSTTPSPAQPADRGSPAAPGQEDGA
pIC50: −log10 of the molar value.

Some solved entries appear below for comparison.
compound	test_target	result
CC(C)Nc1ncc2c(OC3CCOCC3)ncc(-c3cccc(CC(=O)O)c3)c2n1	AXL (Homo sapiens)	5.00 to 6.00
COC[C@H](C)Nc1ncc2c(OC3CCOCC3)ncc(-c3ccc(C4CCN(C)CC4)cc3)c2n1	AXL (Homo sapiens)	6.00 to 7.00
CCCC(C)Nc1ncc2c(=O)n(C3CCN(CCC(=O)N(C)C)CC3)cc([C@H]3CC[C@H](O)CC3)c2n1 (stereo partly drawn)	AXL (Homo sapiens)	6.00 to 7.00
CCCC(C)Nc1ncc2c(OC3CCNCC3)ncc([C@H]3CC[C@H](O)CC3)c2n1 (stereo partly drawn)	AXL (Homo sapiens)	≥ 7.00
CCCC(C)Nc1ncc2c(OC3CCC(F)(F)CC3)ncc([C@H]3CC[C@H](O)CC3)c2n1 (stereo partly drawn)	AXL (Homo sapiens)	5.00 to 6.00

Report the value of pIC50 obtained on AXL (Homo sapiens) for "CC[C@H](C)Nc1ncc2c(OC3CC(C)(C)N(C)C(C)(C)C3)ncc([C@H]3CC[C@H](O)CC3)c2n1" . ≥ 7.00

Report the value of pIC50 obtained on AXL (Homo sapiens) for CCCC(C)Nc1ncc2c(NC3CCNCC3)ncc([C@H]3CC[C@H](O)CC3)c2n1 (stereo partly drawn) . ≥ 7.00

Report the value of pIC50 obtained on AXL (Homo sapiens) for "CC[C@H](C)Nc1ncc2c(=O)n(C[C@H]3COCCN3C)cc([C@H]3CC[C@H](O)CC3)c2n1" . 5.00 to 6.00
